Reported CHO Human INSR values are given for each entry in this list.
# measuredOn: T1, human insulin receptor (INSR) on CHOK1 cells (human, UniProt P06213 28-1382)
# T1 construct: whole, on cells; CHOK1 cells over-expressing human INSR; also called human INSR; hINSR
# procedureText: binding to CHO cells expressing human INSR; 2nd column headed CHO Human INSR; quantity and unit not printed [cont'd]
API note: the answer field is a bare number with no unit suffix.

Req: Query (binder): RHF.15.05896.020 (Fab, V domains shown, Untagged Fab) VH: EVQLVETGGGVVQPGRSLRLSCAASGFKFSSYAMHWVRQAPGKGLEWVAVISWSGSNKYYADSVKGRFTISRDNSKNTLYLQMNSLRAEDTAVYYCARHEWGFGFDEWGQGTTVTVSS VL: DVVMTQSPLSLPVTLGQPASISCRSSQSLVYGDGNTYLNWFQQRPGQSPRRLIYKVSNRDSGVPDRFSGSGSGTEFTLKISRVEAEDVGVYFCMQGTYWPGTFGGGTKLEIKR ; field requested: CHO Human INSR
Resp: 0.838

Req: Repeat for the following binder: RHF.15.05896.068 (Fab, V domains shown, Untagged Fab) VH: EVQLVETGGGVVQPGRSLRLSCAASGFKFSSYAMHWVRQAPGKGLEWVAVISYSGGNKYYADSVKGRFTISRDNSKNTLYLQMNSLRAEDTAVYYCARHEWGFGYDYWGQGTTVTVSS VL: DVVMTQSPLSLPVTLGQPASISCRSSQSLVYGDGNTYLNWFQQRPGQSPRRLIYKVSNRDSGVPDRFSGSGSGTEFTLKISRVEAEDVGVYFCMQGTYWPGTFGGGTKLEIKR
Resp: 0.762

Req: Repeat for the following binder: RHF.15.05896.075 (Fab, V domains shown, Untagged Fab) VH: EVQLVETGGGVVQPGRSLRLSCAASGFKFSSYAMHWVRQAPGKGLEWVAVISYSGSNKYYADSVKGRFTISRDNSKNTLYLQMNSLRAEDTAVYYCARHEWGFGYDYWGQGTTVTVSS VL: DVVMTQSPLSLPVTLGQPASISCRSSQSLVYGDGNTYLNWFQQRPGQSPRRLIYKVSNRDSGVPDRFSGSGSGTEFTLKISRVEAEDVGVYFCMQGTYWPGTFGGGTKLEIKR
Resp: 0.791

Req: Repeat for the following binder: XPA.15.247.2.018 Fab (Fab, V domains shown, Monomeric Fab; also called XPA.247.2.018) VH: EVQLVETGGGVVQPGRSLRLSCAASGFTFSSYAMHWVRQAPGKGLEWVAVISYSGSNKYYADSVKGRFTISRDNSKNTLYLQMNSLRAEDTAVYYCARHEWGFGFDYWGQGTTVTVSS VL: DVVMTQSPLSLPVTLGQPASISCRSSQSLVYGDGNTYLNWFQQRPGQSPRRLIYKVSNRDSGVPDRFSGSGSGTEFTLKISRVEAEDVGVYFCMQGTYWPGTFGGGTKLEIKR
Resp: 1.63
